Below: compounds with IC50 recorded for Ubiquitin carboxyl-terminal hydrolase 9X (Homo sapiens, UniProt Q93008) in separate published works.

Compound | IC50
C[C@@H](c1ccccc1)N1Cc2cc(S(=O)(=O)c3ccc4c(c3)OCCO4)ccc2C1=O | > 25 µM
CCC[C@H](NC(=O)/C(C#N)=C/c1cccc(Br)n1)c1ccccc1 | 2.5 µM
O=C(c1cccc(Cl)c1)c1cc2c(cn1)CN(S(=O)(=O)c1ccc3c(c1)OCCO3)C2 | > 25 µM
O=S(=O)(C1CCN(c2ncco2)CC1)N1Cc2cnc(C(O)c3ccccc3)cc2C1 (stereo not given) | > 25 µM
O=S(=O)(C1CCN(c2nccs2)CC1)N1Cc2cnc(C(O)c3ccccc3)cc2C1 (stereo not given) | > 25 µM
Cc1cc(Cl)cc(-c2ccnc3cc(CN4C(=O)C5C(C4=O)C5(C)C)sc23)c1O[C@@H]1CCNC[C@@H]1C (stereo not given in full) | > 10 µM
OC(c1ccccc1)c1cc2c(cn1)CN(Cc1ccc3c(c1)OCCO3)C2 (stereo not given) | > 25 µM
O=S(=O)(c1ccccc1)c1cc2c(cn1)CN(S(=O)(=O)c1ccc(-c3ncco3)cc1)C2 | > 25 µM
O=C([C@@H](O)c1ccccc1)N1CCc2c(cnn2S(=O)(=O)c2ccc3c(c2)OCCO3)C1 | > 25 µM
COc1ccc(S(=O)(=O)N2CCc3nn(C(=O)[C@@H](O)c4ccccc4)cc3C2)cc1O | > 25 µM
